test system: adult spider mite; assay: Determination of acaricidal activity against adult spider mite (bean leaf spray, 72 h mortality); format: in vivo; conditions: 600 mg/L, after 72 hours
Below, each of the compounds is paired with its reported Mortality rate (%) value.

# compound, Mortality rate (%)
records = [
    ("O=C(Nc1cccc(C(=O)Nc2c(Br)cc(C(F)(C(F)(F)F)C(F)(F)F)cc2Br)c1F)c1ccccc1 [KC3]", "0%"),
    ("O=C(Nc1cccc(C(=O)Nc2c(Br)cccc2Br)c1F)c1ccc2c(c1)OC(F)(F)O2 [Compound C2]", "0%"),
    ("CN(C(=O)c1ccccc1)c1cccc(C(=O)Nc2c(Br)cc(C(F)(C(F)(F)F)C(F)(F)F)cc2C(F)(F)F)c1F [KC2, Broflanilide, reference compound]", "0%"),
    ("O=C(Nc1cccc(C(=O)Nc2ccc(C(F)(C(F)(F)F)C(F)(F)F)cc2)c1F)c1ccc2c(c1)OC(F)(F)O2 [Compound C1]", "0%"),
    ("O=C(Nc1cccc(C(=O)Nc2c(Br)cc(C(F)(C(F)(F)F)C(F)(F)F)cc2Br)c1F)c1ccc2c(c1)OC(F)(F)O2 [Compound I-8]", "100%"),
    ("Cc1cc(C(F)(C(F)(F)F)C(F)(F)F)cc(C)c1NC(=O)c1cccc(NC(=O)c2ccc3c(c2)OC(F)(F)O3)c1 [KC1]", "0%"),
]
